system: CDK8 (Homo sapiens (Human))
Sequence (P49336 whole entry, looked up): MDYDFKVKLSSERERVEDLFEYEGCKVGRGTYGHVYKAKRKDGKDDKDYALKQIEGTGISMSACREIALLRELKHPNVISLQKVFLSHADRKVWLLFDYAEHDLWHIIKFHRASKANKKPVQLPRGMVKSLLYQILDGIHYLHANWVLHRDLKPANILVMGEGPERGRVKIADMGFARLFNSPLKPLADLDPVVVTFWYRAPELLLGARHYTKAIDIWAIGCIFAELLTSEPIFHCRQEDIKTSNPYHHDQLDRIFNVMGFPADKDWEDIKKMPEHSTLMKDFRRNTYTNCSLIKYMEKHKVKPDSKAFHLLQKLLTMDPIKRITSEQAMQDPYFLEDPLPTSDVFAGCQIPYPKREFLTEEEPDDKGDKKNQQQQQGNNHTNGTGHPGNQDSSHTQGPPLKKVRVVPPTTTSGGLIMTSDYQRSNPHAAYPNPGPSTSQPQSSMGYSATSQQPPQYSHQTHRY
Sequence (P24863 whole entry partner, looked up): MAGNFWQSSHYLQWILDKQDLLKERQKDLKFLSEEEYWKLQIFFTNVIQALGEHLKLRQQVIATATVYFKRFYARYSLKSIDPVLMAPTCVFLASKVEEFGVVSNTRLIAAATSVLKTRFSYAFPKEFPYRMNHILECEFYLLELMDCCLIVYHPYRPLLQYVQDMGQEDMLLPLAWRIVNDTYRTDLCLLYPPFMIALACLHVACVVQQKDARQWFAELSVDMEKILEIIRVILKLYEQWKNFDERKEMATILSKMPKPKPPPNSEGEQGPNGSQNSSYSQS
method.summary: LanthaScreen Eu Kinase Binding Assay (competitive kinase binding assay)
run.conditions: Targeting Ligands of Table 1; displacing the Tracer from the target kinase; read-out: Enzyme IC50
Could you please report measured IC50 for the items listed next?

Illustrative cases are given below, each with its answer.
| compound | IC50 |
| --- | --- |
| CN(C)[C@H]1CC[C@@]2(C)C(=CCC3[C@@H]4CC[C@H](c5ccc6ccncc6c5)[C@@]4(C)CC[C@@H]32)C1 (stereo in doubt) | < 100 nM |
| C[C@]12CC[C@H]3[C@@H](CC=C4C[C@@H](O)CC[C@@]43C)[C@@H]1CC[C@@H]2c1ccc2cnccc2c1 | 2000 to 6000 nM |
| C[C@]12CC[C@H](O)CC1=CC[C@@H]1[C@@H]2CC[C@]2(C)C(c3ccc4cnncc4c3)=CC[C@@H]12 | > 6000 nM |

Record IC50 per entry; entries follow.
1. C[C@]12CC[C@H](O)CC1=CC[C@@H]1[C@@H]2CC[C@]2(C)C(c3ccc4nc(N)ncc4c3)=CC[C@@H]12
2. C[C@]12CC[C@H](n3ccnn3)C[C@@H]1CC[C@@H]1[C@@H]2CC[C@]2(C)[C@@H](c3ccc4ccncc4c3)CC[C@@H]12
3. CN(C)[C@@H]1CC[C@@]2(C)[C@@H](CC[C@@H]3[C@@H]2CC[C@]2(C)[C@@H](c4ccc5ccncc5c4)CC[C@@H]32)C1

Reply:
1: 2000 to 6000 nM; 2: < 100 nM; 3: < 100 nM
